# tgt: Receptor tyrosine-protein kinase erbB-2 (Homo sapiens)
# measurement-description: Inhibition of ErbB2 expressed in Escherichia coli or baculovirus-infected insect cells at 400 uM by TR-FRET assay
measured-attribute: inhibition (%)

# example entries with known answers
INSERT INTO measurements (smiles_repr, measured_attribute, measurement_unit, number) VALUES
  ('Nc1n[nH]c2ncccc12', 'inhibition', '%', 9),
  ('Nc1[nH]nc2ccccc12', 'inhibition', '%', 1),
  ('c1ccc2[nH]ncc2c1', 'inhibition', '%', 0),
  ('O=C(Nc1ccccc1)Nc1ccccc1', 'inhibition', '%', 2),
  ('c1n[nH]c2c1CCCC2', 'inhibition', '%', 0),
  ('c1cnc2[nH]ccc2c1', 'inhibition', '%', 0);

[A] Cc1ccc(NC(=O)Nc2cc(C(C)(C)C)nn2-c2ccccc2)cc1
[B] Cc1ccc(C(=O)NC2CC2)cc1F
[C] c1ccc(-c2cnc3nccnn23)cc1
Order the items by recorded inhibition; the first position goes to the largest value. Respond with the label ranking, as requested.
B, A, C

* * *

# tgt: Phosphatidylinositol 4,5-bisphosphate 3-kinase catalytic subunit gamma isoform (Homo sapiens)
# measurement-description: Inhibition of PI3Kgamma expressed in Escherichia coli or baculovirus-infected insect cells at 667 uM by fluorescence polarization assay
measured-attribute: inhibition (%)

INSERT INTO results (smiles_repr, number) VALUES
  ('c1ccc(Nc2ccccc2)cc1', 2),
  ('Cc1ccc(NC(=O)Nc2cc(C(C)(C)C)nn2-c2ccccc2)cc1', 2);

[a] Cc1ccc(C(=O)NC2CC2)cc1F
[b] c1cnc2[nH]ccc2c1
Sorting ascending by inhibition, which comes first: a or b ? Indicate your choice by writing its label.
a
(a: 13%, b: 20%)

[1] Cc1ccc(NC(=O)Nc2cccc(C(F)(F)F)c2)cc1
[2] O=C(Nc1ccccc1)Nc1cccc(C(F)(F)F)c1
[3] Nc1n[nH]c2ncccc12
[4] Nc1ncccc1OCc1ccccc1
[5] Nc1ccc2ncc(-c3ccccc3)n2n1
Order the items by recorded inhibition; the first position goes to the largest value. Respond with the label ranking, as requested.
4, 5, 3, 2, 1
(4: 100%, 5: 70%, 3: 20%, 2: 7%, 1: 0%)

[P] CC(C)(C)c1cc(NC(=O)Nc2ccccc2)no1
[Q] c1ccc(Nc2ncccn2)cc1
[R] c1ccc(-c2cnc3nccnn23)cc1
rank_up(items): orders items by reported inhibition in ascending numerical order. Respond with the label ranking, as requested.
P, Q, R
(P: 9%, Q: 16%, R: 92%)

[1] c1n[nH]c2c1CCCC2
[2] Nc1[nH]cnc2ncnc1-2
[3] O=C(Nc1ccccc1)Nc1ccccc1
rank_up(items): orders items by reported inhibition in ascending numerical order. Respond with the label ranking, as requested.
3, 1, 2
(3: 9%, 1: 13%, 2: 66%)

* * *

# tgt: Tyrosine-protein kinase ITK/TSK (Homo sapiens)
# measurement-description: Inhibition of ITK expressed in Escherichia coli or baculovirus-infected insect cells at 667 uM by TR-FRET assay
measured-attribute: inhibition (%)

INSERT INTO measurements (smiles_repr, tgt, measured_attribute, number) VALUES
  ('Nc1ccc2ncc(-c3ccccc3)n2n1', 'Tyrosine-protein kinase ITK/TSK (Homo sapiens)', 'inhibition', 94),
  ('O=C(Nc1ccccc1)Nc1ccccc1', 'Tyrosine-protein kinase ITK/TSK (Homo sapiens)', 'inhibition', 0),
  ('O=C(Nc1ccccc1)Nc1cccc(C(F)(F)F)c1', 'Tyrosine-protein kinase ITK/TSK (Homo sapiens)', 'inhibition', 0),
  ('c1ccc2[nH]ncc2c1', 'Tyrosine-protein kinase ITK/TSK (Homo sapiens)', 'inhibition', 26),
  ('Nc1[nH]cnc2ncnc1-2', 'Tyrosine-protein kinase ITK/TSK (Homo sapiens)', 'inhibition', 87);

[a] Nc1[nH]nc2ccccc12
[b] Cc1ccc(C(=O)NC2CC2)cc1F
[c] c1ccc(Nc2ncccn2)cc1
[d] c1n[nH]c2c1CCCC2
[e] Cc1ccc(NC(=O)Nc2cccc(C(F)(F)F)c2)cc1
Order the items by recorded inhibition; the first position goes to the largest value. Respond with the label ranking, as requested.
c, a, d, b, e
(c: 69%, a: 41%, d: 24%, b: 14%, e: 0%)

[a] Cc1ccc(NC(=O)Nc2cc(C(C)(C)C)nn2-c2ccccc2)cc1
[b] c1cnc2[nH]ccc2c1
Sorting ascending by inhibition, which comes first: a or b ? Indicate your choice by writing its label.
a

[A] Nc1n[nH]c2ncccc12
[B] CC(C)(C)c1cc(NC(=O)Nc2ccccc2)no1
Sorting ascending by inhibition, which comes first: A or B ? Indicate your choice by writing its label.
B

[a] Nc1ncccc1OCc1ccccc1
[b] c1ccc(-c2cnc3nccnn23)cc1
Of the two listed items, a and b , which carries the larger inhibition figure? Indicate your choice by writing its label.
a
(a: 12%, b: 6%)

* * *

# tgt: Serine/threonine-protein kinase B-raf (Homo sapiens) (UniProt P15056)
# Sequence (P15056 whole entry): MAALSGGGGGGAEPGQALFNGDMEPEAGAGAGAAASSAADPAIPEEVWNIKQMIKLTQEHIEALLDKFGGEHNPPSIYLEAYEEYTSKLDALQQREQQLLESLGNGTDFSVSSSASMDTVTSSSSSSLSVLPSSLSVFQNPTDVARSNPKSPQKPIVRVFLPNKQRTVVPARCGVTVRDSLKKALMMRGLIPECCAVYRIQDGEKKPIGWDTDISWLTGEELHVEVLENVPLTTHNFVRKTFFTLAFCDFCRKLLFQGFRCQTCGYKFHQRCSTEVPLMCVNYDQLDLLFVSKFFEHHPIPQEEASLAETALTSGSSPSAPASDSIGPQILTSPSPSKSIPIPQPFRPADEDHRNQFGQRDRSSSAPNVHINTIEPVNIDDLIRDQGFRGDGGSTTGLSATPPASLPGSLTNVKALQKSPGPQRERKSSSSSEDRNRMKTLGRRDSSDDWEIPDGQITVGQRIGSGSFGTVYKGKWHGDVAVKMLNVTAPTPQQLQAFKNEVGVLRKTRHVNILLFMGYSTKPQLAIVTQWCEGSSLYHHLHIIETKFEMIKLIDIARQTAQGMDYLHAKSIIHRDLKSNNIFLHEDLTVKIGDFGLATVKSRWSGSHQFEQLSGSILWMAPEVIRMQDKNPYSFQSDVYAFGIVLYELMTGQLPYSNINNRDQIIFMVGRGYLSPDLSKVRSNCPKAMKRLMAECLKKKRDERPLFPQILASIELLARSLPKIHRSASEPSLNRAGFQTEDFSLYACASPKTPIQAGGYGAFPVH
# measurement-description: Inhibition of B-Raf expressed in Escherichia coli or baculovirus-infected insect cells using ATP as substrate at 400 uM by fluorescence polarization assay
measured-attribute: inhibition (%)

# example entries with known answers
INSERT INTO measurements (smiles_repr, number) VALUES
  ('c1ccc2[nH]ncc2c1', 0),
  ('c1ccc(Nc2ncccn2)cc1', 10);

[I] Nc1ncccc1OCc1ccccc1
[II] c1cnc2[nH]ccc2c1
Sorting ascending by inhibition, which comes first: I or II ? Indicate your choice by writing its label.
II

* * *

# tgt: MAP kinase-activated protein kinase 2 (Homo sapiens) (UniProt P49137)
# Sequence (P49137 whole entry, looked up): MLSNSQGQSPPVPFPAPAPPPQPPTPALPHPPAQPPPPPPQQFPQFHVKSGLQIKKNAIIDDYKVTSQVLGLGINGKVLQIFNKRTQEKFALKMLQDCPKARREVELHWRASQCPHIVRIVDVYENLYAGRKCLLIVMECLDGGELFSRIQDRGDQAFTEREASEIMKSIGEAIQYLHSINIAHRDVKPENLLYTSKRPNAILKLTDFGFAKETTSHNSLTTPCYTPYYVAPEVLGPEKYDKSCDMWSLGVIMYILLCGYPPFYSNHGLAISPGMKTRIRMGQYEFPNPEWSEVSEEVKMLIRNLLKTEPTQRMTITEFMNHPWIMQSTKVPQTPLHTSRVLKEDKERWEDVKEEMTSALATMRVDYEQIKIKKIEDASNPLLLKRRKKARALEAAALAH
# measurement-description: Inhibition of MK2 expressed in Escherichia coli or baculovirus-infected insect cells at 667 uM by IMAP assay
measured-attribute: inhibition (%)

# example entries with known answers
INSERT INTO measurements (smiles_repr, measurement_unit, number) VALUES
  ('Nc1ccc2ncc(-c3ccccc3)n2n1', '%', 28),
  ('CC(C)(C)c1cc(NC(=O)Nc2ccccc2)no1', '%', 28),
  ('c1ccc(-c2cnc3nccnn23)cc1', '%', 0),
  ('Nc1n[nH]c2ncccc12', '%', 47),
  ('Nc1[nH]nc2ccccc12', '%', 54),
  ('O=C(Nc1ccccc1)Nc1ccccc1', '%', 18);

[a] O=C(Nc1ccccc1)Nc1cccc(C(F)(F)F)c1
[b] Nc1ncccc1OCc1ccccc1
Of the two listed items, a and b , which carries the larger inhibition figure? Indicate your choice by writing its label.
b

* * *

# tgt: Receptor tyrosine-protein kinase erbB-4 (Homo sapiens) (UniProt Q15303)
# Sequence (Q15303 whole entry): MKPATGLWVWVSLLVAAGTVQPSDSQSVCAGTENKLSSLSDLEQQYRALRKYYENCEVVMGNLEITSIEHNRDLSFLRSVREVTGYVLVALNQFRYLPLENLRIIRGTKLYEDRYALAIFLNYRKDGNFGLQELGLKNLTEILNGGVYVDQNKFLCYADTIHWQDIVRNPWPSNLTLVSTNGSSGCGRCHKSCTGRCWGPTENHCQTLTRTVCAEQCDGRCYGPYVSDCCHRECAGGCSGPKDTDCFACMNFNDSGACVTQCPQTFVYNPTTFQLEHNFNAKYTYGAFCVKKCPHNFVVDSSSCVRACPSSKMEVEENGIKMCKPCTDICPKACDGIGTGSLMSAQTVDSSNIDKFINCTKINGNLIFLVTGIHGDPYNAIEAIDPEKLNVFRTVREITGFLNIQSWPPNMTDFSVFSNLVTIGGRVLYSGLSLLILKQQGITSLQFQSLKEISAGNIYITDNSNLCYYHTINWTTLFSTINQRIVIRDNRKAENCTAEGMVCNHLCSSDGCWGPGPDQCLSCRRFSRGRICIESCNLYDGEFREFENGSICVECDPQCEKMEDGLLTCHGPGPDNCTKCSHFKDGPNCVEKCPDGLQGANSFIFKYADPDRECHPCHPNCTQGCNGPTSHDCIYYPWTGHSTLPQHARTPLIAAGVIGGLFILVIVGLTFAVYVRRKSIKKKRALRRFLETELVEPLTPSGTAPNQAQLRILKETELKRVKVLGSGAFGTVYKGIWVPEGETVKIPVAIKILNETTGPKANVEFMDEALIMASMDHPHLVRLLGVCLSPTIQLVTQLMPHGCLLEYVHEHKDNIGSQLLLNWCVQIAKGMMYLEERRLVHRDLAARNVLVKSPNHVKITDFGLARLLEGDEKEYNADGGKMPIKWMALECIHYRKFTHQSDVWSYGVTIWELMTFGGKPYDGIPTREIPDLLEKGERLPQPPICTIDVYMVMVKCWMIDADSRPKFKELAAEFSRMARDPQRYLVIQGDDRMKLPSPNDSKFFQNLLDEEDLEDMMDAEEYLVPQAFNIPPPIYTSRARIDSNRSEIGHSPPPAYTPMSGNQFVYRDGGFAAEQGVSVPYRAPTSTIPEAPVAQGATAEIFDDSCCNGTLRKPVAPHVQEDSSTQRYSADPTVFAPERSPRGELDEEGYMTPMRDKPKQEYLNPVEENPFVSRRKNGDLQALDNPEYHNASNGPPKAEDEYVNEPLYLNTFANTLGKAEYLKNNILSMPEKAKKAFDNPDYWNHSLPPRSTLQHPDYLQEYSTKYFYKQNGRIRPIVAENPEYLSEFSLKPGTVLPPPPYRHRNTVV
# measurement-description: Inhibition of ErbB4 expressed in Escherichia coli or baculovirus-infected insect cells at 400 to 667 uM by TR-FRET assay
measured-attribute: inhibition (%)

# example entries with known answers
INSERT INTO results (smiles_repr, number) VALUES
  ('Cc1ccc(NC(=O)Nc2cc(C(C)(C)C)nn2-c2ccccc2)cc1', 0),
  ('CC(C)(C)c1cc(NC(=O)Nc2ccccc2)no1', 0),
  ('c1ccc(Nc2ccccc2)cc1', 44),
  ('c1n[nH]c2c1CCCC2', 0),
  ('O=C(Nc1ccccc1)Nc1cccc(C(F)(F)F)c1', 0),
  ('c1ccc(-c2cnc3nccnn23)cc1', 0);

[a] Nc1[nH]nc2ccccc12
[b] c1cnc2[nH]ccc2c1
Sorting ascending by inhibition, which comes first: a or b ? Indicate your choice by writing its label.
a

* * *

# tgt: Tyrosine-protein kinase Fes/Fps (Homo sapiens) (UniProt P07332)
# Sequence (P07332 whole entry): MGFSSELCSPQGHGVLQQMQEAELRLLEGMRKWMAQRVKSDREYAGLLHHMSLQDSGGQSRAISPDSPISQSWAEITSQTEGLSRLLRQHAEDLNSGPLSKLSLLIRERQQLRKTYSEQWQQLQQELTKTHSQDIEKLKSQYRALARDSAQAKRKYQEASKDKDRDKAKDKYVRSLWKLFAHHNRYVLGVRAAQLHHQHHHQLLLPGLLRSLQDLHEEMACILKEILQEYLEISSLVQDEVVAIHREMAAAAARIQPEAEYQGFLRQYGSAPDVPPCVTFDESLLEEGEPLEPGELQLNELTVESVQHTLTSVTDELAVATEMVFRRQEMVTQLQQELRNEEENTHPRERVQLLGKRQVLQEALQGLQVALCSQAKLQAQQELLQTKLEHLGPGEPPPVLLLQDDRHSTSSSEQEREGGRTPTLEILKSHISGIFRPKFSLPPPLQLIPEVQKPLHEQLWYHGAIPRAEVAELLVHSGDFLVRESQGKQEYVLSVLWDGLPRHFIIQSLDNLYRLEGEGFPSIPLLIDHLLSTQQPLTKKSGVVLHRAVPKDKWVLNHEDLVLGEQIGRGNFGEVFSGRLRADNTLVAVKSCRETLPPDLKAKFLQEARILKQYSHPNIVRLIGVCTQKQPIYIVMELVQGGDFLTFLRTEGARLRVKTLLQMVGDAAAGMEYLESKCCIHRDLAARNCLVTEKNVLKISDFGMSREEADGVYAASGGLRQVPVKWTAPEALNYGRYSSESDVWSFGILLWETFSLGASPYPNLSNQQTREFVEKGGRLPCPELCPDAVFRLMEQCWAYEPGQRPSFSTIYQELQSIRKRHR
# measurement-description: Inhibition of FES expressed in Escherichia coli or baculovirus-infected insect cells using ATP as substrate at 400 uM by fluorescence polarization assay
measured-attribute: inhibition (%)

[1] c1n[nH]c2c1CCCC2
[2] Nc1[nH]cnc2ncnc1-2
Sorting ascending by inhibition, which comes first: 1 or 2 ? Indicate your choice by writing its label.
1
(1: 14%, 2: 20%)

* * *

# tgt: Serine/threonine-protein kinase Sgk1 (Homo sapiens)
# Sequence (whole entry): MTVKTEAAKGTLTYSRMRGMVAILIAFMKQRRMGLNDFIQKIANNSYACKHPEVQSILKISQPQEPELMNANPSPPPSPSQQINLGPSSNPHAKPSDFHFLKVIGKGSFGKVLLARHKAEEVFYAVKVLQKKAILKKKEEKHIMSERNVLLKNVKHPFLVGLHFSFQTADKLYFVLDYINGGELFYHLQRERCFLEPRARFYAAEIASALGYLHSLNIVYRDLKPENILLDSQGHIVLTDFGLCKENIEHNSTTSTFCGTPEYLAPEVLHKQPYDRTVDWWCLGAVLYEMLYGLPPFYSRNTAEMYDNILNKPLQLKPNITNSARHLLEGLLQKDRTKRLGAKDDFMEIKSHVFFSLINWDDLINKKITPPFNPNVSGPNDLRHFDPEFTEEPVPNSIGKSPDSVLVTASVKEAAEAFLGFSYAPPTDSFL
# measurement-description: Inhibition of SGK1 expressed in Escherichia coli or baculovirus-infected insect cells at 400 uM by IMAP assay
measured-attribute: inhibition (%)

# example entries with known answers
INSERT INTO results (molecule, measured_attribute, measurement_unit, number) VALUES
  ('c1ccc(Nc2ncccn2)cc1', 'inhibition', '%', 21),
  ('c1cnc2[nH]ccc2c1', 'inhibition', '%', 62),
  ('c1ccc(-c2cnc3nccnn23)cc1', 'inhibition', '%', 0),
  ('Nc1ncccc1OCc1ccccc1', 'inhibition', '%', 52),
  ('c1n[nH]c2c1CCCC2', 'inhibition', '%', 27);

[P] c1ccc(Nc2ccccc2)cc1
[Q] Cc1ccc(NC(=O)Nc2cccc(C(F)(F)F)c2)cc1
Sorting ascending by inhibition, which comes first: P or Q ? Indicate your choice by writing its label.
P
(P: 3%, Q: 8%)
